test system: DLD1 NRF2-WT; conditions: 72 h; CellTiter-Glo viability
experimental.endpoint: EC50 viability (nM)

[I] Cc1ccc(C(=O)Nc2ccc(Oc3cc4cnn(C)c4cc3-c3cn[nH]c3)c(F)c2)c(=O)n1-c1ccc(F)cc1 [Merestinib]
[II] CC[C@]1(O)C[C@H]2CN(CCc3c([nH]c4ccccc34)[C@@](C(=O)OC)(c3cc4c(cc3OC)N(C=O)[C@H]3[C@@](O)(C(=O)OC)[C@H](OC(C)=O)[C@]5(CC)C=CCN6CC[C@]43[C@@H]65)C2)C1 [Vincristine]
[III] CNC(=O)c1ccccc1Nc1cc(Nc2ccc(N3CCOCC3)cc2OC)ncc1C(F)(F)F [VS-4718]
[IV] CC[C@H](CO)Nc1nc(NCc2ccccc2)c2ncn(C(C)C)c2n1 [Seliciclib]
Lookup: Give the descending EC50 viability ranking for the 4 molecules listed above. Order the labels as requested and give them as your answer.
Found: IV, III, I, II

Values compiled from the supplement of paper PMC7600603.
